tested.system: Capsid scaffolding protein (Human cytomegalovirus (strain AD169), UniProt P16753)
Sequence (P16753 whole entry): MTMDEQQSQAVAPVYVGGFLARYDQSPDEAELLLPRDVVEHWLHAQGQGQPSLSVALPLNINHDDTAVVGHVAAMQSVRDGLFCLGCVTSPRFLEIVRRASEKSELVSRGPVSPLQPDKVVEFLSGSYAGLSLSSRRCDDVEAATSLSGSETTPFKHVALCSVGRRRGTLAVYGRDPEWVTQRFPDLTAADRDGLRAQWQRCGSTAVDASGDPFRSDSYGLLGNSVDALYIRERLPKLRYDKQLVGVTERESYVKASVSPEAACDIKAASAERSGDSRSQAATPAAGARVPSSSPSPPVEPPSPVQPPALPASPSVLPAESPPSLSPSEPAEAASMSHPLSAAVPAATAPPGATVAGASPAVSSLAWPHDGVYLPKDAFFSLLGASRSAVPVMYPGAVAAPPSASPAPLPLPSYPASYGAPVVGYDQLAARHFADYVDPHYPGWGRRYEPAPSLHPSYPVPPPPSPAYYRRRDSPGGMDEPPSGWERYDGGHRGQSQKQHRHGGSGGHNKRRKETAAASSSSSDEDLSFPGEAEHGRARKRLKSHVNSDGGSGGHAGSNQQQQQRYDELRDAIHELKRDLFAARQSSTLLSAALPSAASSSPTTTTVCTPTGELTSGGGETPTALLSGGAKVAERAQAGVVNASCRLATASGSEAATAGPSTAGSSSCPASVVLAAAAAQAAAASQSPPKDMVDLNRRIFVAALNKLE
assay.summary: HCMV antiviral assay
result.type: EC50 (µM)
One number for each entry, in µM.

Report EC50 for Nc1ncnc2c1ncn2CCOCP(=O)(O)O [US10071110, Compound Adefovir] please.
55
